Data origin, for the record: patent US20250282868A1

Target: T1, human TREM2 (human, UniProt Q9NZC2 19-230)
T1 construct: on THP-1 WT cells and M2a-like macrophages (endogenous) and on CHO or HEK293T cells overexpressing human TREM2 with DAP12; also called hTREM2
T1 sequence: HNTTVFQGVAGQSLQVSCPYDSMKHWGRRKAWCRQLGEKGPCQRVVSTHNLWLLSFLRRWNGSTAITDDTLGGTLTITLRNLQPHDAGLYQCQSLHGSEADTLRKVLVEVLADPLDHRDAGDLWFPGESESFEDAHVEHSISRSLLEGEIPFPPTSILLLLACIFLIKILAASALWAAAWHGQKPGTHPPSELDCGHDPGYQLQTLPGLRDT
Assay: flow cytometry, THP-1 WT vs THP-1 TREM2 KO cells, 10 ug/ml
Experimental: In order to test specificity of selected antibodies to TREM2, binding was tested by flow cytometry on THP-1 TREM2 KO (clone, produced using CRISPR technology in house) and on THP-1 WT. Cells were incubated with selected anti-TREM2 antibodies (final concentration of 10 μg/ml) for 30 min at 4° C. After washing, bound antibodies were detected with a secondary anti-human IgG Fc PE-labelled for 30 min at 4° C. Fluorescence intensity was measured by flow cytometry.
Readings of MFI Fold change (THP-1 WT over THP-1 TREM2 KO) for the listed binders
Record the value in fold, omitting the unit from your answer.

EOS006164 (antibody, V domains shown) VH: EVQLVESGGGLVQPGRSLRLSCTASGFTFDDYTMSWFRQAPGKGLEWVGFIGSKAYSATTEYTASVKGRFTISRDGSKSIAYLQMNSLKTEDTAVYYCARGKRYSYTYWTPAFDVWGQGTMVTVSS VL: DIQMTQSPSSLSASVGDRVTITCQASQDITNYLNWYQQKPGKAPKLLIYDASNLETGVPSRFSGSGSGTDFTFTISSLQPEDIATYYCQEYDSYITFGGGTKVEIK    4.3

Param item = EOS006165 (antibody, V domains shown) VH: QVQLVQSGAEVKKPGSSVKVSCKASGGTFSSYAISWVRQAPGQGLEWMGGIIPISGTANYAQKFQGRVTITADESTSTAYMELSSLRSEDTAVYYCARTQEYTAFDIWGQGTMVTVSS VL: EIVLTQSPATLSLSPGERATLSCRASQSVSSYLAWFQQKPGQAPRLLIYDASNRATGIPARFSGSGSGTDFTLTISSLEPEDFAVYYCQQDYHWPITFGGGTKVEIK ; retrieve measured MFI Fold change (THP-1 WT over THP-1 TREM2 KO).
2.5

Param item = EOS006162 (antibody, V domains shown) VH: QVQLVQSGAEVKKPGSSVKVSCKASGGTFSSYAISWVRQAPGQGLEWMGGIIPISGTANYAQKFQGRVTITADESTSTAYMELSSLRSEDTAVYYCARTQEYTLFDSWGQGTMVTVSS VL: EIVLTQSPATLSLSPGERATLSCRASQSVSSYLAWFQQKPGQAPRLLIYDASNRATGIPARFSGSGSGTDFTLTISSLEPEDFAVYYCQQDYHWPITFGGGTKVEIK ; retrieve measured MFI Fold change (THP-1 WT over THP-1 TREM2 KO).
11
